assay: AUC (0 to t) in Wistar rat at 1 mg/kg, iv after 0.25 to 24 hrs by LC/MS/MS method; type: ADME, organism-based; set-up: dose 1 mg/kg, time 0.25-24 hr, route intravenous; settings: in vivo
measured_attribute: AUC(0-t)
Please state the number and follow it with the unit.

Please give the measured AUC(0-t) for this compound: C[C@H](O)[C@@H](CCc1cccc(C(F)(F)F)c1)n1cnc(C(N)=O)c1
1.42 µM·h

Then this compound:
Could you share which AUC(0-t) value was measured for CCCCCC[C@H]([C@H](C)O)n1cnc2c(N)ncnc21 [(+)-EHNA] ?
0.35 µM·h

---

test: Half life in rat liver microsomes pre-incubated at 37 degC for 5 mins before NADPH addition and measured after 30 mins by LC/MS/MS method; type: ADME, microsome
measured_attribute: half-life

I am curious: what half-life value has been reported for C[C@H](O)[C@@H](CCc1cccc(-c2cnccn2)c1)n1cnc2c(N)ncnc21 ?
> 30 min

Entry to check: C[C@H](O)[C@@H](CCc1ccc(C(F)(F)F)cc1)n1cnc2c(N)ncnc21
> 30 min

Now this one: C[C@H](O)[C@@H](CCc1cccc(-c2nccs2)c1)n1cnc2c(N)ncnc21
> 30 min

Next: CCc1ccc(CC[C@H]([C@H](C)O)n2cnc3c(N)ncnc32)s1
> 30 min

Next: C[C@H](O)[C@@H](CCc1cccc(C(F)(F)F)c1)n1cnc(C(N)=O)c1
> 30 min

Follow-up entry: CCCCSC[C@H]([C@H](C)O)n1cnc2c(N)ncnc21
> 30 min

Proceed to COC(=O)c1cccc(CC[C@H]([C@H](C)O)n2cnc3c(N)ncnc32)c1
> 30 min

Another molecule to check: C[C@H](O)[C@@H](CSc1cccc(C(F)(F)F)c1)n1cnc2c(N)ncnc21
> 100 min

Could you do the same for C[C@H](O)[C@@H](CCC1CCCCC1)n1cnc2c(N)ncnc21 , please?
13 min

Then C[C@H](O)[C@@H](CCc1cccc(C(F)(F)F)c1)n1cnc2c(N)ncnc21 ?
> 30 min

Quick one: C[C@H](O)[C@@H](CCc1cccc(-c2ccccn2)c1)n1cnc2c(N)ncnc21
> 30 min

Do the same for CNC(=O)c1cccc(CC[C@H]([C@H](C)O)n2cnc3c(N)ncnc32)c1 please
> 30 min

---

test: Drug metabolism in mouse liver microsomes assessed as drug recovery pre-incubated at 37 degC for 5 mins before NADPH addition and measured after 30 mins by LC/MS/MS method; format: ADME, microsome; details: read-out: Drug recovery
measured_attribute: remaining at 0.5 h

Answered cases to consult:
Entry C[C@H](O)[C@@H](CCc1cccc(C(F)(F)F)c1)n1cnc2c(N)ncnc21 : reported remaining at 0.5 h = ?
74%

Now consider CCc1ccc(CC[C@H]([C@H](C)O)n2cnc3c(N)ncnc32)s1 and answer again.
64%

Now give it for COC(=O)c1cccc(CC[C@H]([C@H](C)O)n2cnc3c(N)ncnc32)c1 too.
88%

Please answer likewise for C[C@H](O)[C@@H](CCc1cccc(-c2cnccn2)c1)n1cnc2c(N)ncnc21
57%

Also C[C@H](O)[C@@H](CSc1cccc(C(F)(F)F)c1)n1cnc2c(N)ncnc21 ?
43%

Next:
Tell me the measured remaining at 0.5 h of C[C@H](O)[C@@H](CCC1CCCCC1)n1cnc2c(N)ncnc21 , please.
77%

Record: CNC(=O)c1cccc(CC[C@H]([C@H](C)O)n2cnc3c(N)ncnc32)c1
100%

---

test: Drug metabolism in human liver microsomes assessed as drug recovery pre-incubated at 37 degC for 5 mins before NADPH addition and measured after 30 mins by LC/MS/MS method; format: ADME, microsome; details: read-out: Drug recovery
measured_attribute: remaining at 0.5 h (%)
Give just the numeric value; % need not be written.

Recorded remaining at 0.5 h for CCc1ccc(CC[C@H]([C@H](C)O)n2cnc3c(N)ncnc32)s1 , please?
76

Next molecule up: C[C@H](O)[C@@H](CCc1cccc(-c2nccs2)c1)n1cnc2c(N)ncnc21
84

Okay, and CCCCSC[C@H]([C@H](C)O)n1cnc2c(N)ncnc21 ?
94

C[C@H](O)[C@@H](CCc1cccc(-c2ccccn2)c1)n1cnc2c(N)ncnc21 , same question.
82

Try this molecule next: C[C@H](O)[C@@H](CSc1cccc(C(F)(F)F)c1)n1cnc2c(N)ncnc21
83

Further cases:
Entry C[C@H](O)[C@@H](CCc1cccc(-c2cnccn2)c1)n1cnc2c(N)ncnc21 has what remaining at 0.5 h?
71

Cool, now C[C@H](O)[C@@H](CCc1cccc(C(F)(F)F)c1)n1cnc2c(N)ncnc21
80

Would you kindly repeat that for COC(=O)c1cccc(CC[C@H]([C@H](C)O)n2cnc3c(N)ncnc32)c1 ?
68

Do the same for C[C@H](O)[C@@H](CCC1CCCCC1)n1cnc2c(N)ncnc21 please
65

Also C[C@H](O)[C@@H](CCc1cccc(C(F)(F)F)c1)n1cnc(C(N)=O)c1 , if possible.
79

Lookup C[C@H](O)[C@@H](CCc1ccc(C(F)(F)F)cc1)n1cnc2c(N)ncnc21
99

Field entry: CNC(=O)c1cccc(CC[C@H]([C@H](C)O)n2cnc3c(N)ncnc32)c1
90

---

experiment: Drug metabolism in rat liver microsomes assessed as metabolic turnover rate per 0.125 mg/ml protein pre-incubated at 37 degC for 5 mins before NADPH addition and measured after 30 mins by LC/MS/MS method; assay type: ADME, microsome; conditions: 0.5 h
Reported Drug metabolism values are given for each entry in this list.

Examples with their reported Drug metabolism follow.
Please look up its Drug metabolism: C[C@H](O)[C@@H](CCc1ccc(C(F)(F)F)cc1)n1cnc2c(N)ncnc21
< 0.04 nmol/min/mg

Field entry: C[C@H](O)[C@@H](CSc1cccc(C(F)(F)F)c1)n1cnc2c(N)ncnc21
0.05 nmol/min/mg

Follow-up entry: COC(=O)c1cccc(CC[C@H]([C@H](C)O)n2cnc3c(N)ncnc32)c1
< 0.04 nmol/min/mg

Moving on to C[C@H](O)[C@@H](CCc1cccc(C(F)(F)F)c1)n1cnc2c(N)ncnc21
0.04 nmol/min/mg

// query: CNC(=O)c1cccc(CC[C@H]([C@H](C)O)n2cnc3c(N)ncnc32)c1
< 0.04 nmol/min/mg

Please examine the following record next.
Query: Drug metabolism; subject: C[C@H](O)[C@@H](CCc1cccc(-c2cnccn2)c1)n1cnc2c(N)ncnc21
< 0.04 nmol/min/mg

---

experiment: Drug metabolism in mouse liver microsomes assessed as drug recovery pre-incubated at 37 degC for 5 mins before NADPH addition and measured after 30 mins by LC/MS/MS method; type: ADME, microsome; settings: read-out: Drug recovery
Parameter: remaining at 0.5 h. Scope: all listed entries.
Enter the number, and then the unit.

Can you look up the measured remaining at 0.5 h of C[C@H](O)[C@@H](CCc1cccc(-c2ccccn2)c1)n1cnc2c(N)ncnc21 for me?
58%

Item: C[C@H](O)[C@@H](CCc1cccc(C(F)(F)F)c1)n1cnc(C(N)=O)c1
89%

Try this molecule too: C[C@H](O)[C@@H](CCc1ccc(C(F)(F)F)cc1)n1cnc2c(N)ncnc21
85%

What do you have for CCCCSC[C@H]([C@H](C)O)n1cnc2c(N)ncnc21 ?
100%

New cases:
Reported remaining at 0.5 h for C[C@H](O)[C@@H](CCc1cccc(-c2nccs2)c1)n1cnc2c(N)ncnc21 : what is it?
65%
